Hello, the source for this data is PubChem BioAssay AID1645838, in case you need it.

measurement_notes: supercomplex reporter luminescence per Hoechst cell count – Hoechst nuclei count (AID 1645838);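 note: control cybrid cells; higher means more mitochondrial supercomplex formation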
condition_details: Cells, luminescence/Hoechst cell count ratio, library stock concentration (final well concentration not given) 1.67 mM, stronger effect = higher value
The campaign covered roughly 2,000 compounds. About 100 (5%) were called active. Only a selection was taken, and actives are over-represented in it overall.
Please use True whenever z-score is not below -0.2, and False whenever it is.

Solved entries (count: 3):
>>> label_class("CS(=O)(=O)N1CCN(Cc2cc3nc(-c4cccc5[nH]ncc45)nc(N4CCOCC4)c3s2)CC1")
"True"
>>> label_class("O=C(NC1CCN(CC(F)(F)F)CC1)c1ccc(-c2cccc(F)c2)nc1")
"False"
>>> label_class("O=c1[nH]oc2cc(Cl)ccc12")
"False"

Q) Would you say Cc1ccc(C(=O)Nc2ccc(Oc3cc4cnn(C)c4cc3-c3cn[nH]c3)c(F)c2)c(=O)n1-c1ccc(F)cc1 shows z-score at minimum -0.2?
A) False

Q) Would you say NC(=O)Nc1sc(-c2ccc(F)cc2)cc1C(N)=O shows z-score at minimum -0.2?
A) True

Q) Would you say O=C(Nc1nnc(-c2ccco2)o1)c1cc(-c2ccccc2)nc2ccccc12 shows z-score at minimum -0.2?
A) True

Q) Would you say O=C(O)CCn1nnc2ccccc21 shows z-score at minimum -0.2?
A) False

Q) Would you say CCN(CC)c1ccc(C=NNC(=O)c2ccc(O)cc2)cc1 shows z-score at minimum -0.2?
A) False
